In this section we review reported MIC, Control (salt stability) values for a set of substances.
# Test system: E. coli ATCC25922
# test settings: ATCC25922, 18 h
Ends that are not written are not given here.
Lab book: enter the figure in µM, no units written.

Recorded results for 2 substances are shown here.
substance: FPRRWQWRRPF-NH2 [FP-PF]
value measured: 4
--
substance: KKRRWQWRRKK-NH2 [KK-KK]
value measured: 32

Report MIC, Control (salt stability) for FWRRWQWRRWF-NH2 [FW-WF] please.
4

Param item = KWRRWQWRRWK-NH2 [KW-WK] ; retrieve measured MIC, Control (salt stability).
4

* * *

# Tested on: E. coli UB 1005
# Format: cell-based
# test settings: UB 1005, 18 h
Ends that are not written are not given here.
result type: MIC (µM)
Report the figure in µM without appending any unit label.

Examples with answers:
substance: FPRRWQWRRPF-NH2 [FP-PF]
units: µM
value measured: 8
--
substance: KWRRWQWRRWK-NH2 [KW-WK]
units: µM
value measured: 8
--
substance: KKRRWQWRRKK-NH2 [KK-KK]
units: µM
value measured: 32

Shift focus to the following entry.
Give its MIC value. Item: FWRRWQWRRWF-NH2 [FW-WF]
16

* * *

# System: E. coli ATCC25922
# test settings: ATCC25922, 18 h
Ends that are not written are not given here.
Some substances, each annotated with its measured MIC in the presence of Fe3+.
All answers are understood in µM, so give the number only.

substance: FPRRWQWRRPF-NH2 [FP-PF]
result type: MIC in the presence of Fe3+
value measured: 4
//
substance: FWRRWQWRRWF-NH2 [FW-WF]
result type: MIC in the presence of Fe3+
value measured: 4
//
substance: KKRRWQWRRKK-NH2 [KK-KK]
result type: MIC in the presence of Fe3+
value measured: 8

What MIC in the presence of Fe3+ value was documented for this substance, KWRRWQWRRWK-NH2 [KW-WK] ?
4
